Test system: M14 melanoma
Test: NCI tumour cell line growth inhibition, 48 h
Measured Metric: TGI

Compound | TGI
CS(=O)c1ccc(-c2nc(-c3ccc(F)cc3)c(-c3ccncc3)[nH]2)cc1 (stereo not given) | 43.3 µM

Consider the compound N#CCC(=O)N/N=C1/C(=O)NC(=O)C(=O)C1c1nc2ccccc2s1 (stereo not given) and give its measured TGI. > 100 µM

Please look up its TGI: `CN(C)c1ccc(/C=C2\N=C(N/N=C/c3ccccc3)NC2=O)cc1` > 100 µM

What measured TGI goes with `O=c1cc(NCC2CCCCC2)[nH]c(=O)[nH]1` ? > 100 µM

For the compound shown here, CCCC(=O)N/S(=N/S(=O)(=O)c1ccc(Cl)cc1)C(Cl)(Cl)Cl (stereo not given) , give the reported TGI. > 100 µM

What does the record list as TGI for `CCOC(=O)C1=C(O)c2ccccc2C(=O)C1=O` ? > 100 µM

What does the record list as TGI for `O=C(NCCN1CCOCC1)Nc1ccc(-c2cc3c(Nc4ccc(Oc5cccc(C(F)(F)F)c5)c(Cl)c4)ncnc3s2)cc1` ? 3.24 µM

So what does the record say about TGI for `Cc1ccc(C)c(/C(=N\N=C(N)N)C2CC2)c1` ? > 100 µM

What does the data say about its TGI? Entry: O=C1NC(=O)C2(CCC(O)C2)c2cc[n+]([O-])cc21 (stereo not given) > 100 µM

Name the reported TGI value associated with the compound CC(=O)OC1OC2C(NC(=O)OC(C)(C)C)C1CC2(OCc1ccccc1)OCc1ccccc1 (stereo not given) 50.6 µM

* * *

System: MCF7 breast
Assay: NCI tumour cell line growth inhibition, 48 h
Measured Metric: TGI

In the examples that follow, each entry is paired with its recorded TGI.
Molecule | TGI
C[C@@H]1CC[C@H]2C(COC/C=C/COCC3=C(C(F)(F)F)O[C@@H]4O[C@@]5(C)CC[C@H]6[C@H](C)CC[C@@H]3[C@@]46OO5)=C(C(F)(F)F)O[C@@H]3O[C@@]4(C)CC[C@@H]1[C@]32OO4 | > 58.3 µM
CC[C@@H](C)[C@H]([C@H](CC(=O)N1CCC[C@@H]1[C@@H](OC)[C@H](C)C(=O)N[C@H](Cc1ccccc1)c1nccs1)OC)N(C)C(=O)[C@H](NC(=O)[C@@H](C(C)C)N(C)C)C(C)C | > 100 µM
COc1ccc2nc3cc([N+](=O)[O-])ccc3c(NNc3ccc(Cl)cc3)c2c1 | > 100 µM
COc1ccc(-c2c3c(n(C4OC(CO)C(O)C(O)C4O)c(=S)c2C#N)CC(C)(C)CC3=O)cc1 (stereo not given) | > 100 µM

Would you mind telling me what TGI value was observed for COc1ccc(C2CC(=O)Oc3ccccc3O2)cc1 (stereo not given) ? > 100 µM

Which TGI value is on record for `NC(=O)C(=CN1C(=O)CC(=O)NC1=S)C(N)=O` ? > 100 µM

Consider the molecule shown here: `COc1ccc(Nc2nc(N)c(C(=O)c3ccc(OC)cc3)s2)cc1` What is its recorded TGI? > 100 µM

// query TGI value for entry COc1ccccc1CNC(=O)C1c2ccccc2C(=O)N(CC(C)C)C1c1cccs1 (stereo not given) > 100 µM

Record request: TGI value, item `Nc1nc(N)nc(-c2cnccn2)n1` > 100 µM

TGI lookup needed for Cc1ccc2[nH]c(C(=O)NN3C(=O)CSC34CCCC(C)C4)c(-c3ccccc3)c2c1 (stereo not given) , thanks. 38.5 µM

Which TGI reading was recorded for the molecule `COc1cc(C)cc2c1C(=O)C(Br)=CC2=O` ? 21.6 µM

Item `C[n+]1cccc(/C=C/c2ccc3cccc(O)c3n2)c1` has what recorded TGI? > 100 µM
